Exercise: state measured IC50 for each of the compounds provided.
Biological target: KRas G12R (Homo sapiens, UniProt P01116, G12R)
Sequence (P01116 1-169 isoform P01116-2 G12R): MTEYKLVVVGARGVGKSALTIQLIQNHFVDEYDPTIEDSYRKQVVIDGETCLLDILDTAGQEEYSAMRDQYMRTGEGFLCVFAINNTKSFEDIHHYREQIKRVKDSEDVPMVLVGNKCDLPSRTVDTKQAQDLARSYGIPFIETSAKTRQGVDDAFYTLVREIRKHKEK
Test: biochemical
Settings: Binding to KRas (IC50 nM) G12R, TR-FRET displacement, KRas G12R

As a guide, the following entries are already answered.
[[record]]
compound = "CCc1c(F)ccc2cc(O)cc(N3CCc4c(nc(OC[C@@]56CCCN5C[C@H](F)C6)nc4N4CCCn5nc6c(c5C4)CCCN6)C3)c12 [Example 392]"
quantity_name = "IC50"
observed_result = "< 2 nM"

[[record]]
compound = "CCc1c(F)ccc2cc(O)cc(N3CCc4c(nc(OC[C@@]56CCCN5C[C@H](F)C6)nc4N4CCCn5nc6c(c5C4)CCNC6=O)C3)c12 [Example 408]"
quantity_name = "IC50"
observed_result = "< 2 nM"

[[record]]
compound = "CCc1c(F)ccc2cc(O)cc(N3CCc4c(nc(OC[C@@]56CCCN5C[C@H](F)C6)nc4N4CCCn5nc(C(=O)NC6CC6)cc5C4)C3)c12 [Example 384]"
quantity_name = "IC50"
observed_result = "< 2 nM"


Look up IC50 for the entries below, preserving their order.
1. CCc1c(F)ccc2cc(O)cc(N3CCc4c(nc(OC[C@]56CCCN5[C@H](COC(=O)N(C)C)CC6)nc4N4CCCn5nc(C(=O)N(C)C)cc5C4)C3)c12 [Example 586]
2. CCc1c(F)ccc2cc(O)cc(N3CCc4c(nc(OC[C@@]56CCCN5C[C@H](F)C6)nc4N4C[C@H]5C[C@@H](C4)C(=O)NC5=O)C3)c12 [Example 416]

< 2 nM
< 2 nM
